experiment_description: recombinant UMI read abundance after kanamycin selection (control-corrected) (log10(CPM+1)); higher = more efficient recombination; extreme values may be limits of the assay; sequences stand for … in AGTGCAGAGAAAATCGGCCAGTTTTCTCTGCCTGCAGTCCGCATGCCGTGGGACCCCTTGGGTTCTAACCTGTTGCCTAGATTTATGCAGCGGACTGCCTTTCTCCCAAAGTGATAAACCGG…AGGTTGGTTTCACT; site = the 11-nt donor;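 note: IS621 bridge recombinase in Escherichia coli cells against a fixed T5 target plasmid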
measured_quantity: recombinant UMI read abundance (log10)
Numbers only.

AGGTTCCCATGGACCGGTTTTCCCGGTAATCCGTATTTGTG (site AGGTTTCCTCA) | 0.00972
GGCAATACATGGACCGGTTTTCCCGGTAATCCGTATTTGAA (site GGCAATGCTTT) | 0

Please look at the items below and tell me recombinant UMI read abundance (log10) for each one, in order.
1. AAGCACGCATGGACCGGTTTTCCCGGTAATCCGTATTTGTG (site AAGCACGCTCG)
2. TGGTGCCCATGGACCGGTTTTCCCGGTAATCCGTATTTGGT (site TGGTGCCCTAC)
3. CACTCGACATGGACCGGTTTTCCCGGTAATCCGTATTTGGG (site CAGTCGACTCC)
4. ACTAGTGCATGGACCGGTTTTCCCGGTAATCCGTATTTGCT (site ACTAGTGCTAC)

[1.22, 0.00779, 0, 0.00908]

Please look at the items below and tell me recombinant UMI read abundance (log10) for each one, in order.
1. TATTTGGCATGGACCGGTTTTCCCGGTAATCCGTATTTGTA (site TATTTGGCTTA)
2. AGCCTAGCATGGACCGGTTTTCCCGGTAATCCGTATTTGTT (site AGCCGAGCTAA)

1. 0.00725
2. 0.0175

* * *

experiment_description: recombinant UMI read abundance after kanamycin selection (control-corrected) (log10(CPM+1)); higher = more efficient recombination; extreme values may be limits of the assay; sequences stand for … in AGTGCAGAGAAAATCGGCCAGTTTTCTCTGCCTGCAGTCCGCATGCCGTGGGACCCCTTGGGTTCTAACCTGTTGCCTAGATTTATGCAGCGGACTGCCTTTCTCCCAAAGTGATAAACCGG…AGGTTGGTTTCACT; site = the 11-nt donor
Recorded recombinant UMI read abundance (log10) determines the label; the label ranges are bin 0: < 0.01; bin 1: ≥ 0.01 and < 0.3; bin 2: ≥ 0.3

Known results for sequences:
CCCTTCTCATGGACCGGTTTTCCCGGTAATCCGTATTTGGG (site CCCTTCTCTCG) | bin 1
GTGCATGCATGGACCGGTTTTCCCGGTAATCCGTATTTGTT (site GTGCATGCTAC) | bin 1
GAAGCTTCATGGACCGGTTTTCCCGGTAATCCGTATTTGTT (site GAAGATTCTAA) | bin 0

Could you tell me which band GCAAGATCATGGACCGGTTTTCCCGGTAATCCGTATTTGGA (site GCAAGATCTTC) belongs to?
bin 2

Could you tell me which band ACAGTATCATGGACCGGTTTTCCCGGTAATCCGTATTTGCA (site ACATTATCTTG) belongs to?
bin 2

Could you tell me which band CCTAAAACATGGACCGGTTTTCCCGGTAATCCGTATTTGAT (site CCTAAATCTAT) belongs to?
bin 0

Could you tell me which band TCTAATTCATGGACCGGTTTTCCCGGTAATCCGTATTTGCC (site TCTAATTCTGG) belongs to?
bin 0

Could you tell me which band GCGTTCTCATGGACCGGTTTTCCCGGTAATCCGTATTTGAA (site GCGTTCTCTTT) belongs to?
bin 2

* * *

experiment_description: recombinant UMI read abundance after kanamycin selection (control-corrected) (log10(CPM+1)); higher = more efficient recombination; extreme values may be limits of the assay; sequences stand for … in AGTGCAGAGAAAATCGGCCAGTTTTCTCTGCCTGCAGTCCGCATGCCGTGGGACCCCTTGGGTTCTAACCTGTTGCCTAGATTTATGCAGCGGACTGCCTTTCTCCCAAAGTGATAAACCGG…AGGTTGGTTTCACT; site = the 11-nt donor
Param threshold (0.02) applies to recombinant UMI read abundance (log10); output 1.0 when value >= threshold, 0.0 when value < threshold.

Quick check, recombinant UMI read abundance (log10) >= 0.02? ACCTCTACATGGACCGGTTTTCCCGGTAATCCGTATTTGTG (site ACTTCTACTCA)
1.0

* * *

experiment_description: recombinant UMI read abundance after kanamycin selection (control-corrected) (log10(CPM+1)); higher = more efficient recombination; extreme values may be limits of the assay; sequences stand for … in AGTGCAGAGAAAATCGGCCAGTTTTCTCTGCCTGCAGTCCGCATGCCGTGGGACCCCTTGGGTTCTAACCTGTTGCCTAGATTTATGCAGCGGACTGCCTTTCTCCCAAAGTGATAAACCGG…AGGTTGGTTTCACT; site = the 11-nt donor
Param threshold (0.02) applies to recombinant UMI read abundance (log10); output satisfied when value >= threshold, not satisfied when value < threshold.

Known results for sequences:
TGTTCCCCATGGACCGGTTTTCCCGGTAATCCGTATTTGTG (site TGTTCCCCTTA) | not satisfied
CGGACAGCATGGACCGGTTTTCCCGGTAATCCGTATTTGCT (site CGGACATCTAG) | not satisfied
TTTCTGACATGGACCGGTTTTCCCGGTAATCCGTATTTGCC (site TTTCTGACTGG) | not satisfied
AGTCTAGCATGGACCGGTTTTCCCGGTAATCCGTATTTGTT (site AGTCTAGCTAA) | not satisfied
CAAGATTCATGGACCGGTTTTCCCGGTAATCCGTATTTGTT (site TAAGATTCTAA) | satisfied

Quick check, recombinant UMI read abundance (log10) >= 0.02? TATCCTTCATGGACCGGTTTTCCCGGTAATCCGTATTTGGT (site TAGCCTTCTAC)
satisfied

Quick check, recombinant UMI read abundance (log10) >= 0.02? CCTAAAACATGGACCGGTTTTCCCGGTAATCCGTATTTGGC (site CCTAATACTGC)
not satisfied

Quick check, recombinant UMI read abundance (log10) >= 0.02? GGTCGATCATGGACCGGTTTTCCCGGTAATCCGTATTTGCG (site GGTCGATCTCG)
satisfied

Quick check, recombinant UMI read abundance (log10) >= 0.02? TACTTGGCATGGACCGGTTTTCCCGGTAATCCGTATTTGGA (site CACTTGGCTTC)
not satisfied

Quick check, recombinant UMI read abundance (log10) >= 0.02? GCTACTGCATGGACCGGTTTTCCCGGTAATCCGTATTTGCA (site GCTACTGCTGG)
not satisfied

Quick check, recombinant UMI read abundance (log10) >= 0.02? TGCTAGGCATGGACCGGTTTTCCCGGTAATCCGTATTTGGA (site TGCTAGGCTAC)
satisfied

* * *

experiment_description: recombinant UMI read abundance after kanamycin selection (control-corrected) (log10(CPM+1)); higher = more efficient recombination; extreme values may be limits of the assay; sequences stand for … in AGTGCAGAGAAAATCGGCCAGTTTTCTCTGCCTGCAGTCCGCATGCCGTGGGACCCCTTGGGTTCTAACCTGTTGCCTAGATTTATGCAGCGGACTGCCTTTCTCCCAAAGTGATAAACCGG…AGGTTGGTTTCACT; site = the 11-nt donor
Param threshold (0.01) applies to recombinant UMI read abundance (log10); output 1 (yes) when value >= threshold, 0 (no) when value < threshold.

GATCCGGCATGGACCGGTTTTCCCGGTAATCCGTATTTGAT (site GATCCGGCTAT) | 1 (yes)

Quick check, recombinant UMI read abundance (log10) >= 0.01? GCTACTGCATGGACCGGTTTTCCCGGTAATCCGTATTTGCG (site GCTACTGCTGG)
0 (no)

Quick check, recombinant UMI read abundance (log10) >= 0.01? GATGCCTCATGGACCGGTTTTCCCGGTAATCCGTATTTGTT (site GATGCCTCTAA)
1 (yes)

Quick check, recombinant UMI read abundance (log10) >= 0.01? ATTTAGGCATGGACCGGTTTTCCCGGTAATCCGTATTTGGC (site ATTTAGGCTGC)
1 (yes)

Quick check, recombinant UMI read abundance (log10) >= 0.01? TGTGGAACATGGACCGGTTTTCCCGGTAATCCGTATTTGTT (site TGTGGAACTAA)
1 (yes)

Quick check, recombinant UMI read abundance (log10) >= 0.01? TAGGCATCATGGACCGGTTTTCCCGGTAATCCGTATTTGCG (site TAGGCATCTCG)
1 (yes)

Quick check, recombinant UMI read abundance (log10) >= 0.01? GTTGCGGCATGGACCGGTTTTCCCGGTAATCCGTATTTGCT (site TTTGCGGCTAG)
1 (yes)

Quick check, recombinant UMI read abundance (log10) >= 0.01? ACTTAGTCATGGACCGGTTTTCCCGGTAATCCGTATTTGCC (site ACTTAGTCTGG)
1 (yes)
